Exercise: state measured pIC50 for each of the compounds provided.
assay_system: NACHT, LRR and PYD domains-containing protein 3 (Mus musculus, UniProt Q8R4B8)
Sequence (Q8R4B8 whole entry, the tested form may be a part): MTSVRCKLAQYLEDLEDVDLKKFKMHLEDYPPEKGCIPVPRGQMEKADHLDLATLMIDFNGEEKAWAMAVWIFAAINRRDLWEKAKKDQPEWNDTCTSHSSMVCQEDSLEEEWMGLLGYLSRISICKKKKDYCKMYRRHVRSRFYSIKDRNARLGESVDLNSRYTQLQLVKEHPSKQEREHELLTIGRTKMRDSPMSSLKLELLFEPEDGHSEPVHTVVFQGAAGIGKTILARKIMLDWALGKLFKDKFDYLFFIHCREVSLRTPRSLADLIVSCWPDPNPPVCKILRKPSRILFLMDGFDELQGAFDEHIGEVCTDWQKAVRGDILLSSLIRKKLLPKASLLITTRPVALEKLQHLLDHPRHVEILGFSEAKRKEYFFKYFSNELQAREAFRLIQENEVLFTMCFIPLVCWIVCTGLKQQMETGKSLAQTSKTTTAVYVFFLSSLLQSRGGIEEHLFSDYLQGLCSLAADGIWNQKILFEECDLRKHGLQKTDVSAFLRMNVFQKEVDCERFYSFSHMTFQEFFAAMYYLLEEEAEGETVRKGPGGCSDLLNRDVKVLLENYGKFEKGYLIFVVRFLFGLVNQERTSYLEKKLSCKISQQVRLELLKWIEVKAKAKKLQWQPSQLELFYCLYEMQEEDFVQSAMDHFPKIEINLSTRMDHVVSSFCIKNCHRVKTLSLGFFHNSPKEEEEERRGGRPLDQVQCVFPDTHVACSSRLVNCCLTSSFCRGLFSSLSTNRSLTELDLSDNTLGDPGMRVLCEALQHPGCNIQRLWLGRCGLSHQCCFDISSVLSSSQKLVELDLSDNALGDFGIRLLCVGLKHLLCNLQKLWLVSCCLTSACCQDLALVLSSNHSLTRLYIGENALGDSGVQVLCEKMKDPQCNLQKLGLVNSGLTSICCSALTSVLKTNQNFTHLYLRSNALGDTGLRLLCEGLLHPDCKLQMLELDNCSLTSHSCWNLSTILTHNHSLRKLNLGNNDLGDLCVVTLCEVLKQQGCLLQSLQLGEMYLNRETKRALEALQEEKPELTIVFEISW
assay_procedure: Inhibition of NLRP3 inflammasome activation in mouse BMDM cells assessed as reduction in IL-1beta release by ELISA
Bear in mind: pIC50 is minus log10 of a mol/L concentration; give just that figure.

Recorded pIC50 (compound COc1cc(-c2cc(=O)c3c(O)cc(O)c(CC=C(C)C)c3o2)ccc1O ): 4.39

Recorded pIC50 (compound CC(C)=CCc1c(O)cc2oc(-c3ccc(O)c(O)c3)c(O)c(=O)c2c1O ): 4.69

Recorded pIC50 (compound COc1cc(C2CC(=O)c3c(O)cc(O)c(CC=C(C)C)c3O2)c(O)cc1O (stereo not given) ): 4.76

Recorded pIC50 (compound O=c1c(O)c(-c2ccc(O)c(O)c2)oc2cc(O)cc(O)c12 ): 4.43

Recorded pIC50 (compound CC(C)=CCC/C(C)=C/Cc1c(O)cc2oc(-c3ccc(O)cc3)c(O)c(=O)c2c1O ): 5.47

Recorded pIC50 (compound COc1ccc(-c2cc(=O)c3c(O)cc(O)c(CC=C(C)C)c3o2)cc1 ): 4.94

Recorded pIC50 (compound CC(C)=CCc1c(O)cc2oc(-c3ccc(O)cc3)c(O)c(=O)c2c1O ): 5.07
